Measured remaining activity at 10 µM, listed per entry.
Target: BTK (Homo sapiens (Human))
Sequence (Q06187 whole entry): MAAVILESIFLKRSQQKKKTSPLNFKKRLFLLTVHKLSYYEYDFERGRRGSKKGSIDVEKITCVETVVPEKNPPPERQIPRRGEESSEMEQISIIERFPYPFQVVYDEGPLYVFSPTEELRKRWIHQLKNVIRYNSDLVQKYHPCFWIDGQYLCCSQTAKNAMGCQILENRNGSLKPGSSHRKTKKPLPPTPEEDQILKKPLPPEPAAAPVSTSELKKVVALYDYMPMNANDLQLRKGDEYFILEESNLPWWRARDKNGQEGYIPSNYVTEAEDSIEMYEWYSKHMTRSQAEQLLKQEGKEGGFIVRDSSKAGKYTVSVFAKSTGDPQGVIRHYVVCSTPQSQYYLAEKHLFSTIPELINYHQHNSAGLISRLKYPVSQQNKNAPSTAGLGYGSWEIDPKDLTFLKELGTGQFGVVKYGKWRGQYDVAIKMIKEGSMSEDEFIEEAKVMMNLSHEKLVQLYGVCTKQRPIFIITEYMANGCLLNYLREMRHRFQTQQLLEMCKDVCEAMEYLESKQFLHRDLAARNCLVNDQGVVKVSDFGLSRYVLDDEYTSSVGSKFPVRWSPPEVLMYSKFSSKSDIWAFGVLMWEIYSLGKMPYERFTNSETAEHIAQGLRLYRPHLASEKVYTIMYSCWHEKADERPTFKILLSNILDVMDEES
Assay: HTRF KinEASE-TK kinase assay, BTK
Format: biochemical
Details: 10 μM compound, 3 h preincubation; read-out: % BTK Remaining activity vs DMSO (10 μM, 3 h)

C[S+]([O-])c1c(F)c(F)c(F)c(F)c1C(=O)Nc1cc2c(Nc3ccc(F)c(Cl)c3)ncnc2cc1OC1CCOC1 (stereo not shown) : 50 to 90%
CN(CCn1nc(-c2ccc(Oc3ccccc3)cc2)c2c(N)ncnc21)C(=O)c1c(F)c(F)c(F)c(F)c1S(=O)(=O)N(C)C : < 50%
CN(C)S(=O)(=O)c1c(F)c(F)c(F)c(F)c1C(=O)NCCNc1ncnc2[nH]ccc12 : < 50%

For CS(=O)(=O)c1c(F)c(F)c(F)c(F)c1CNCCn1nc(-c2ccc(Oc3ccccc3)cc2)c2c(N)ncnc21 , what is its reported remaining activity at 10 µM?
< 50%
